target: D(2) dopamine receptor (Rattus norvegicus); experiment: In vitro ability to inhibit the binding of [3H]spiperone to dopamine receptor D2 in rat striatal membranes.; type: cell membranes, Membrane
MEASURED ATTRIBUTE: IC50 (nM)

>>> meas_value("CCCc1cc(OC)c(OC)c(C(=O)NC[C@@H]2CCCN2CC)c1OC")
2960
>>> meas_value("CCN1CCC[C@H]1CNC(=O)c1c(O)c(OC)cc(Br)c1OC")
67
>>> meas_value("CCN1CCC[C@H]1CNC(=O)c1c(OC)c(Cl)cc(OC)c1OC")
420
>>> meas_value("CCN1CCC[C@H]1CNC(=O)c1c(N)c(Br)cc(OC)c1OC")
21
>>> meas_value("CCN1CCC[C@H]1CNC(=O)c1c(O)c(Br)cc(N)c1OC")
33
>>> meas_value("CCN1CCC[C@H]1CNC(=O)c1c(OC)c(Br)cc(OC)c1OC")
1750

----------
Collected pKi values appear next to each entry.
target: D(2) dopamine receptor (Rattus norvegicus, UniProt P61169); test: Inhibition of [3H]raclopride binding to rat striatal membrane Dopamine receptor D2
Sequence (P61169 whole entry): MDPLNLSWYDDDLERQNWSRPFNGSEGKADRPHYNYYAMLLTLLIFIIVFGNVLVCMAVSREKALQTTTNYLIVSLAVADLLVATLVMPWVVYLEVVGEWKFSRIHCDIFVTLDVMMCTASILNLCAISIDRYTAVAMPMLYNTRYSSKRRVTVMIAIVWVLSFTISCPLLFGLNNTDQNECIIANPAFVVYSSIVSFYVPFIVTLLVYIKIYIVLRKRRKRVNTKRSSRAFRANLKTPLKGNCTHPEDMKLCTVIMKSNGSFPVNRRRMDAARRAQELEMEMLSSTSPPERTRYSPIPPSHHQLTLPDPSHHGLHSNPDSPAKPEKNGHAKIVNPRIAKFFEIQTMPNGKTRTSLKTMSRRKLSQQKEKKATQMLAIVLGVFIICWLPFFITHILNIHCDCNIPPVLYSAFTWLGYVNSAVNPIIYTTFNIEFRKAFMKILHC
pKi: −log10 of the molar value.
MEASURED ATTRIBUTE: pKi

>>> meas_value("CCCc1cc(OC)c(OC)c(C(=O)NC[C@@H]2CCCN2CC)c1O.O=C(O)/C(O)=C(\\O)C(=O)O")
10.64
>>> meas_value("CCN1CCC[C@@H]1CNC(=O)c1c(O)c(Br)cc(OC)c1OC")
8.18
>>> meas_value("CCN1CCC[C@H]1CNC(=O)c1c(O)c(OC)cc(Br)c1OC")
8.08
>>> meas_value("CCN1CCC[C@H]1CNC(=O)c1c(O)c(Cl)cc(OC)c1OC")
10.06
>>> meas_value("CCN1CCC[C@H]1CNC(=O)c1c(O)c(Br)cc(OC)c1OC")
10.19
>>> meas_value("CCN1CCC[C@H]1CNC(=O)c1c(O)ccc(OC)c1OC")
9.12
>>> meas_value("CCc1cc(OC)c(OC)c(C(=O)NC[C@@H]2CCCN2CC)c1O")
10.48

Reference source for all entries: ChEMBL document CHEMBL1125080
